- Assay Summary: In-vitro absorption, Caco-2 A-B permeability
- Assay type: in vitro ADME, human
- Assay Context: human, Caco-2, pH 7.4, Caco-2 A-B; without verapamil; 1.0E−05M; read-out: Permeability 1st
Structures can show the parent of a compound that is named as a salt. Non-standard residues stand in square brackets, D forms with d. Residues, ends and D or L forms follow the SMILES beside them. Dopa = N[C@@H](Cc1ccc(O)c(O)c1)C(=O)O
Attribute Measured: Papp A→B at 60 min, 10 μM

// query Given the molecule NCCCC[C@H](NC(=O)[C@@H](N)Cc1ccc(O)c(O)c1)C(=O)O [LD-Lys TFA salt, Levodopa Lysine TFA Salt] (H-[Dopa]-Lys-OH) , what is its reported Papp A→B at 60 min, 10 μM?
// result 0.12 ×10⁻⁶ cm/s

// query Given the molecule NC(=O)C[C@H](NC(=O)[C@@H](N)Cc1ccc(O)c(O)c1)C(=O)O [LD-Asn TFA salt, Levodopa Asparagine TFA Salt] (H-[Dopa]-Asn-OH) , what is its reported Papp A→B at 60 min, 10 μM?
// result 0.6 ×10⁻⁶ cm/s

// query Given the molecule N=C(N)NCCC[C@H](NC(=O)[C@@H](N)Cc1ccc(O)c(O)c1)C(=O)O [LD-Arg TFA salt, Levodopa Arginine TFA Salt] , what is its reported Papp A→B at 60 min, 10 μM?
// result 0.1 ×10⁻⁶ cm/s

// query Given the molecule N[C@@H](CSC[C@H](NC(=O)[C@@H](N)Cc1ccc(O)c(O)c1)C(=O)O)C(=O)O (single isomer, unassigned; peak 2) [LD-LA2 TFA salt, Levodopa Lanthionine Peak 2 TFA Salt] , what is its reported Papp A→B at 60 min, 10 μM?
// result 20.2 ×10⁻⁶ cm/s

====

- Assay Summary: Comparative formulation tests, physical stability (Tables 32a-c, 33a-c)
- Type: physicochemical
- Assay Context: NB 144-18, ~0.4% Asc + ~0.4% NAC; LDAA TFA salt/CD formulation; Day 40, returned to 2-8° C.
Where a name gives a salt, the structure may show the parent alone. Non-standard residues stand in square brackets, D forms with d. Residues, ends and D or L forms follow the SMILES beside them. Dopa = N[C@@H](Cc1ccc(O)c(O)c1)C(=O)O
Attribute Measured: Physical stability (visual), Day 40

// query Given the compound N[C@@H](Cc1ccc(O)c(O)c1)C(=O)N[C@@H](CC(=O)O)C(=O)O [LD-Asp TFA salt, Levodopa Aspartic Acid] (H-[Dopa]-Asp-OH) , what is its reported Physical stability (visual), Day 40?
// result Stable

// query Given the compound N[C@@H](Cc1ccc(O)c(O)c1)C(=O)N[C@@H](Cc1ccc(O)cc1)C(=O)O [LD-Tyr TFA salt, Levodopa Tyrosine TFA Salt] (H-[Dopa]-Tyr-OH) , what is its reported Physical stability (visual), Day 40?
// result Stable

// query Given the compound N[C@@H](Cc1ccc(O)c(O)c1)C(=O)N[C@@H](Cc1c[nH]c2ccccc12)C(=O)O [LD-Trp TFA salt, Levodopa Tryptophan] (H-[Dopa]-Trp-OH) , what is its reported Physical stability (visual), Day 40?
// result Stable

// query Given the compound NCCCC[C@H](NC(=O)[C@@H](N)Cc1ccc(O)c(O)c1)C(=O)O [LD-Lys TFA salt, Levodopa Lysine TFA Salt] (H-[Dopa]-Lys-OH) , what is its reported Physical stability (visual), Day 40?
// result Precipitated

// query Given the compound N=C(N)NCCC[C@H](NC(=O)[C@@H](N)Cc1ccc(O)c(O)c1)C(=O)O [LD-Arg TFA salt, Levodopa Arginine TFA Salt] , what is its reported Physical stability (visual), Day 40?
// result Stable

More entries:
// query Given the compound N[C@@H](CSC[C@@H](NC(=O)[C@@H](N)Cc1ccc(O)c(O)c1)C(=O)O)C(=O)O (single isomer, unassigned; peak 1) [LD-LA1 TFA salt, Levodopa Lanthionine Peak 1 TFA Salt] , what is its reported Physical stability (visual), Day 40?
// result Precipitated

====

Would you kindly list % Compound Remaining 2nd for each of these compounds?
- Assay Summary: In-vitro metabolism of LDAA compounds using liver microsomes
- Assay type: in vitro ADME, human
- Assay Context: incubation time 15 minutes; 1.0E−07M
Structures can show the parent of a compound that is named as a salt. Non-standard residues stand in square brackets, D forms with d. Residues, ends and D or L forms follow the SMILES beside them. Dopa = N[C@@H](Cc1ccc(O)c(O)c1)C(=O)O
Entry rule: numbers only, all in %.

// query Given the compound N[C@@H](CSC[C@H](NC(=O)[C@@H](N)Cc1ccc(O)c(O)c1)C(=O)O)C(=O)O (single isomer, unassigned; peak 2) [LD-LA2 TFA salt, Levodopa Lanthionine Peak 2 TFA Salt] , what is its reported % Compound Remaining 2nd?
// result 103.5

// query Given the compound NC(=O)C[C@H](NC(=O)[C@@H](N)Cc1ccc(O)c(O)c1)C(=O)O [LD-Asn TFA salt, Levodopa Asparagine TFA Salt] (H-[Dopa]-Asn-OH) , what is its reported % Compound Remaining 2nd?
// result 96.4

// query Given the compound N=C(N)NCCC[C@H](NC(=O)[C@@H](N)Cc1ccc(O)c(O)c1)C(=O)O [LD-Arg TFA salt, Levodopa Arginine TFA Salt] , what is its reported % Compound Remaining 2nd?
// result 111.8

// query Given the compound N[C@@H](Cc1ccc(O)c(O)c1)C(=O)O [LD (control), L-3,4-dihydroxyphenylalanine, reference compound] , what is its reported % Compound Remaining 2nd?
// result 97.8

// query Given the compound N[C@@H](CSC[C@@H](NC(=O)[C@@H](N)Cc1ccc(O)c(O)c1)C(=O)O)C(=O)O (single isomer, unassigned; peak 1) [LD-LA1 TFA salt, Levodopa Lanthionine Peak 1 TFA Salt] , what is its reported % Compound Remaining 2nd?
// result 110.4

// query Given the compound NCCCC[C@H](NC(=O)[C@@H](N)Cc1ccc(O)c(O)c1)C(=O)O [LD-Lys TFA salt, Levodopa Lysine TFA Salt] (H-[Dopa]-Lys-OH) , what is its reported % Compound Remaining 2nd?
// result 96.7

// query Given the compound N[C@@H](Cc1ccc(O)c(O)c1)C(=O)NCC(=O)O [LD-Gly TFA salt, Levodopa Glycine TFA Salt] , what is its reported % Compound Remaining 2nd?
// result 108.1

====

- Assay Summary: in vitro
- Assay Context: human, Caco-2, pH 7.4, Percent Recovery Mean
Where a name gives a salt, the structure may show the parent alone. Non-standard residues stand in square brackets, D forms with d. Residues, ends and D or L forms follow the SMILES beside them. Dopa = N[C@@H](Cc1ccc(O)c(O)c1)C(=O)O
Would you kindly list recovery at 40 min, 10 μM for each of these compounds?
Entry rule: numbers only, all in %.

// query Given the compound NC(=O)C[C@H](NC(=O)[C@@H](N)Cc1ccc(O)c(O)c1)C(=O)O [LD-Asn TFA salt, Levodopa Asparagine TFA Salt] (H-[Dopa]-Asn-OH) , what is its reported recovery at 40 min, 10 μM?
// result 85

// query Given the compound N=C(N)NCCC[C@H](NC(=O)[C@@H](N)Cc1ccc(O)c(O)c1)C(=O)O [LD-Arg TFA salt, Levodopa Arginine TFA Salt] , what is its reported recovery at 40 min, 10 μM?
// result 85

// query Given the compound N[C@@H](CSC[C@@H](NC(=O)[C@@H](N)Cc1ccc(O)c(O)c1)C(=O)O)C(=O)O (single isomer, unassigned; peak 1) [LD-LA1 TFA salt, Levodopa Lanthionine Peak 1 TFA Salt] , what is its reported recovery at 40 min, 10 μM?
// result 83

// query Given the compound N[C@@H](Cc1ccc(O)c(O)c1)C(=O)N[C@@H](Cc1ccc(O)cc1)C(=O)O [LD-Tyr TFA salt, Levodopa Tyrosine TFA Salt] (H-[Dopa]-Tyr-OH) , what is its reported recovery at 40 min, 10 μM?
// result 89

// query Given the compound N[C@@H](Cc1ccc(O)c(O)c1)C(=O)NCC(=O)O [LD-Gly TFA salt, Levodopa Glycine TFA Salt] , what is its reported recovery at 40 min, 10 μM?
// result 85

// query Given the compound N[C@@H](Cc1ccc(O)c(O)c1)C(=O)N[C@@H](Cc1c[nH]c2ccccc12)C(=O)O [LD-Trp TFA salt, Levodopa Tryptophan] (H-[Dopa]-Trp-OH) , what is its reported recovery at 40 min, 10 μM?
// result 77

// query Given the compound N[C@@H](CSC[C@H](NC(=O)[C@@H](N)Cc1ccc(O)c(O)c1)C(=O)O)C(=O)O (single isomer, unassigned; peak 2) [LD-LA2 TFA salt, Levodopa Lanthionine Peak 2 TFA Salt] , what is its reported recovery at 40 min, 10 μM?
// result 74

// query Given the compound N[C@@H](Cc1ccc(O)c(O)c1)C(=O)O [LD (control), L-3,4-dihydroxyphenylalanine, reference compound] , what is its reported recovery at 40 min, 10 μM?
// result 96

// query Given the compound NC(=O)CC[C@H](NC(=O)[C@@H](N)Cc1ccc(O)c(O)c1)C(=O)O [LD-Gln TFA salt, Levodopa Glutamine TFA Salt] (H-[Dopa]-Gln-OH) , what is its reported recovery at 40 min, 10 μM?
// result 87

// query Given the compound NCCCC[C@H](NC(=O)[C@@H](N)Cc1ccc(O)c(O)c1)C(=O)O [LD-Lys TFA salt, Levodopa Lysine TFA Salt] (H-[Dopa]-Lys-OH) , what is its reported recovery at 40 min, 10 μM?
// result 82
